# Test system: renal artery
# method_description: relaxing activity against contraction by KCl, extracted rabbit blood vessels (renal artery)
# experimental_setup: Oryctolagus cuniculus, helical stripe specimens, read-out: ED50 (relaxing activity against KCl contraction)
measured_attribute: EC50

Could you share which EC50 value was measured for `N=c1c[n+](N2CCN(CCCCC(=O)c3ccccc3)CC2)[n-]o1` ? 100 nM

---

# System: human platelet
# method_description: inhibition of human platelet aggregation in PRP
# Assay type: cell-based
# experimental_setup: Table 1, human platelets, inducing substance not stated, read-out: Platelet aggregation inhibiting activity (concentration required to inhibit aggregation to an extent of 50%)
measured_attribute: log10 IC50 (log10 of the value in µM)
For clarity, the numbers are log10 values of IC50 expressed in µM.

Solved entries (count: 2):
>>> df
                                   compound   system_tested  value_observed
0  N=c1c[n+](N2CCN(CCCCCC(=O)c3ccccc3)CC2)[n-]o1 [compound D]  human platelet            0.80
1  CC(C)CC(CCCN1CCN([n+]2cc(=N)o[n-]2)CC1)C(=O)c1ccccc1 (stereo not drawn) [compound G]  human platelet            1.04

Request - read-out log10 IC50 | tested on human platelet | compound N=c1c[n+](N2CCN(CC(=O)c3ccccc3)CC2)[n-]o1 [compound B] -0.85

Request - read-out log10 IC50 | tested on human platelet | compound N=c1c[n+](N2CCN(CCCCCCC(=O)c3ccccc3)CC2)[n-]o1 [compound E] -0.03

Request - read-out log10 IC50 | tested on human platelet | compound N=c1c[n+](N2CCN(CCCCCCCCC(=O)c3ccccc3)CC2)[n-]o1 [compound F] -1.55

Request - read-out log10 IC50 | tested on human platelet | compound N=c1c[n+](N2CCN(CCCC(=O)c3ccccc3)CC2)[n-]o1 [compound C] 0.73

---

# method_description: acute toxicity test
# experimental_setup: mouse, in vivo, sc; subcutaneous administration
# Procedure: An acute toxicity test was carried out by using male dd-strain mice (body weight 16 to 20 g).
measured_attribute: LD50 (mg/kg)
# output: bare number, implied unit mg/kg

Could you share which LD50 value was measured for N=c1c[n+](N2CCN(CCCCC(=O)c3ccccc3)CC2)[n-]o1 [compound A] ? 350

---

# method_description: acute toxicity test
# experimental_setup: mouse, in vivo; intravenous administration
# Protocol: An acute toxicity test was carried out by using male dd-strain mice (body weight 16 to 20 g).
measured_attribute: LD50 (mg/kg)
# output: bare number, implied unit mg/kg

Could you share which LD50 value was measured for `N=c1c[n+](N2CCN(CCCCC(=O)c3ccccc3)CC2)[n-]o1` ? 91

---

# Test system: mesenteric artery
# method_description: relaxing activity against contraction by KCl, extracted rabbit blood vessels (mesenteric artery)
# experimental_setup: Oryctolagus cuniculus; Table 1; artery extracted from rabbits; same way as in I (1); read-out: Mesenteric artery relaxing activity (concentration required to cause 50% of the maximum relaxation)
measured_attribute: pEC50
Formally, pEC50 is defined as -log10 of the concentration c, with c in mol/L.

Solved entries (count: 5):
                                   compound  value_observed
0  N=c1c[n+](N2CCN(CCCCCC(=O)c3ccccc3)CC2)[n-]o1            5.52
1  N=c1c[n+](N2CCN(CCCCCCC(=O)c3ccccc3)CC2)[n-]o1            6.92
2  N=c1c[n+](N2CCN(CC(=O)c3ccccc3)CC2)[n-]o1            6.80
3  CC(C)CC(CCCN1CCN([n+]2cc(=N)o[n-]2)CC1)C(=O)c1ccccc1 (stereo not drawn)            5.89
4  N=c1c[n+](N2CCN(CCCCCCCCC(=O)c3ccccc3)CC2)[n-]o1            7.24

# next compound below
Could you share which pEC50 value was measured for `N=c1c[n+](N2CCN(CCCC(=O)c3ccccc3)CC2)[n-]o1` ? 5.64

---

# method_description: acute toxicity test
# experimental_setup: mouse, in vivo; oral administration
measured_attribute: LD50 (mg/kg)
# output: bare number, implied unit mg/kg

Could you share which LD50 value was measured for `N=c1c[n+](N2CCN(CCCCC(=O)c3ccccc3)CC2)[n-]o1` ? 750

---

# Tested on: human platelet
# method_description: inhibition of human platelet aggregation in PRP
# Format: cell-based
# experimental_setup: induced by adrenaline, human PRP, read-out: concentration which achieved a 50% inhibition of the platelet aggregation
measured_attribute: pIC50
Formally, pIC50 is defined as -log10 of the concentration c, with c in mol/L.

Could you share which pIC50 value was measured for N=c1c[n+](N2CCN(CCCCC(=O)c3ccccc3)CC2)[n-]o1 [compound A] ? 6.10

---

# Test system: coronary artery
# method_description: relaxing activity against contraction by KCl, extracted rabbit blood vessels (coronary artery)
# experimental_setup: Oryctolagus cuniculus, helical stripe specimens, read-out: ED50 (relaxing activity against KCl contraction)
measured_attribute: EC50 (nM)
# output: bare number, implied unit nM

Could you share which EC50 value was measured for `N=c1c[n+](N2CCN(CCCCC(=O)c3ccccc3)CC2)[n-]o1` ? 200

---

# Test system: human platelet
# method_description: inhibition of human platelet aggregation in PRP
# Type: cell-based
# experimental_setup: induced by adenosine diphosphate, human PRP, read-out: concentration which achieved a 50% inhibition of the platelet aggregation
# Text: (2) Activity on human platelet PRP (platelet-rich plasma) was centrifugally separated from human blood to which sodium citrate had been added, and used as a sample. Collagen, adrenaline and adenosine diphosphate were used as substances causing platelet aggregation. The inhibitory effect of the compound A against platelet aggregation included by these substances was examined. […]
measured_attribute: IC50 (nM)
# output: bare number, implied unit nM

Could you share which IC50 value was measured for `N=c1c[n+](N2CCN(CCCCC(=O)c3ccccc3)CC2)[n-]o1` ? 1500
